Biological target: human recombinant monoacylglycerol lipase (hMAGL) (Homo sapiens)
Sequence (Q99685 1-303): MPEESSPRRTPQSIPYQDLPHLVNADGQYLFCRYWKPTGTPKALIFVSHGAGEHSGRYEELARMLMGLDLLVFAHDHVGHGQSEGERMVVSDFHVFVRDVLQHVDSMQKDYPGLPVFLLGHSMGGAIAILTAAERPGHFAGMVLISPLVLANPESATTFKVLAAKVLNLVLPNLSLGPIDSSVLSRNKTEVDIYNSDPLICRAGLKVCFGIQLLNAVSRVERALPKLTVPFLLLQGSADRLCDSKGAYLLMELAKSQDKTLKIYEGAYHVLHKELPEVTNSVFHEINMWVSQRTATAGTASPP
Assay: fluorogenic assay with substrate 1c, […] min pre-incubation
pIC50: −log10 of the molar value.

| given.smiles | pIC50 |
| --- | --- |
| O=C(Nc1cccc(-c2ccccc2)c1)OC1CCCCC1 | 5.09 |
